Molecular target: human LPAR1 (Homo sapiens)
Construct: host or cells: TangoEDG2-bla U2OS cells
Sequence (Q92633 whole entry): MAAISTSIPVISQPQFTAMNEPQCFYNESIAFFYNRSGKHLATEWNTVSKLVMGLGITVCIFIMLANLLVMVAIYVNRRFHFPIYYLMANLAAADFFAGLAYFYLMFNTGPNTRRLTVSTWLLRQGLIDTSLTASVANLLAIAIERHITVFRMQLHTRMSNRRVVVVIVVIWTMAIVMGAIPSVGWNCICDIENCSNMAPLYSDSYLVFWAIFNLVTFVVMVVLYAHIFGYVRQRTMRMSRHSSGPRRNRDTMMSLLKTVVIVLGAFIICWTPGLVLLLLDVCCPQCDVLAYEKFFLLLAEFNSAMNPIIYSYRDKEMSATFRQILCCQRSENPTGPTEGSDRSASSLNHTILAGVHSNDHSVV
Assay: Arrestin assay (Arrestin Reporter EDG2-bla U2OS), inhibition of LPA-stimulated signal
Type: cell-based
Details: TangoEDG2-bla U2OS cells expressing human LPAR1; 0.25 μM LPA; read-out: Arrestin Reporter EDG2-bla U2OS Human Merged IC50
resultType: log10(IC50) (log10 of the value in nM)
Hi team, quick reminder: these entries are log10 of IC50 (nM).

Check out these entries, answers already filled in.
CC(C)c1c(F)cnn1C1(C(=O)Nc2ccc(Cl)cc2OC(F)F)CCN(CC(C)(C)C(=O)O)CC1 = 1.38
CC1CCc2cnn(C3(C(=O)Nc4ccc(Cl)cc4OC(F)F)CCN(CC4(C(=O)O)CCOCC4)CC3)c21 (centres unmarked) = 1.36

Consider the additional compound presented here.
Q) Dear colleague, I am looking for the recorded log10(IC50) of the following compound: CC(C)c1ccnn1C1(C(=O)Nc2ccc(Cl)cc2OC(F)F)CCN(C[C@H](C(=O)O)c2cnn(C)c2)CC1 (single isomer, unassigned)
A) 1.81
